Data origin, for the record: patent US6037334A

biological target: human factor Xa (Homo sapiens); assay: biochemical
Sequence (P00742 235-488 limits assumed): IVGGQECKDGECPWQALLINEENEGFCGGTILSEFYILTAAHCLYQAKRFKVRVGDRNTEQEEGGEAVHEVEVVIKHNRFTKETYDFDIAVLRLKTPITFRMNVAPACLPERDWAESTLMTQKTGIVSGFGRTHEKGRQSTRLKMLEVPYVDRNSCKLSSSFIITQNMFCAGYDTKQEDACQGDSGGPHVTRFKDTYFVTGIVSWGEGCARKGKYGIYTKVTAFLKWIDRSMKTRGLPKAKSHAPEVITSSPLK
Sequence (P00742 41-179 partner limits assumed): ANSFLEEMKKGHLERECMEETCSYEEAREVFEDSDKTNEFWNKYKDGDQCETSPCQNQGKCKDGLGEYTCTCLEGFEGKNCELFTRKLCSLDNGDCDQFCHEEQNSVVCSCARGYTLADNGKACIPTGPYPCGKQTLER
Attribute Measured: pKi
The scale used: pKi is minus the common logarithm of the concentration in molar units.

**Query** Given the molecule CCOP(=O)(OCC)C(Oc1ccc2ccc(C(=N)N)cc2c1)c1ccc(OC2CCN(C(C)=N)CC2)cc1 (stereo not shown) [Example 1] , write its reported pKi.
**Result** 8.70
